pIC50: −log10 of the molar value.
# Aurora kinase B (Homo sapiens): pIC50 values follow
metric: pIC50

Worked examples follow.
INSERT INTO measurements (smi, assay_system, result_number) VALUES
  ('CNc1nc(-c2ccc3c(N)n[nH]c3c2)cc(N2C[C@@H](C(=O)Nc3ccccc3)CC[C@H]2C)n1', 'Aurora kinase B (Homo sapiens)', 5.70),
  ('Nc1nc(-c2ccc3c(N)n[nH]c3c2)cc(N2CCC[C@H](C(=O)Nc3ccccc3)C2)n1', 'Aurora kinase B (Homo sapiens)', 5.90);

[I] CC[C@@H]1CO[C@H](C(=O)Nc2ccccc2)CN1c1cc(-c2ccc3c(N)n[nH]c3c2)nc(NC)n1
[II] C[C@@H]1CCCCN1c1cc(-c2ccc3c(N)n[nH]c3c2)nc(N)n1
[III] C[C@@H]1CO[C@H](C(=O)Nc2ccccc2)CN1c1cc(-c2ccc3c(N)n[nH]c3c2)nc(N)n1
[IV] Cc1cc(-c2ccc3c(N)n[nH]c3c2)nc(N)n1
[V] C[C@@H]1CC[C@H](NC(=O)OC(C)(C)C)CN1c1cc(-c2ccc3c(N)n[nH]c3c2)nc(N)n1
## Input Let's sort these by pIC50, smallest first. Go ahead? In your reply, arrange the labels in the requested order.
## Output II, IV, I, III, V
(II: 4.60, IV: 4.90, I: 5.80, III: 6.50, V: 7.30)

* * *

- assay.system: 3-phosphoinositide-dependent protein kinase 1 (Homo sapiens, UniProt O15530)
- Sequence (O15530 whole entry): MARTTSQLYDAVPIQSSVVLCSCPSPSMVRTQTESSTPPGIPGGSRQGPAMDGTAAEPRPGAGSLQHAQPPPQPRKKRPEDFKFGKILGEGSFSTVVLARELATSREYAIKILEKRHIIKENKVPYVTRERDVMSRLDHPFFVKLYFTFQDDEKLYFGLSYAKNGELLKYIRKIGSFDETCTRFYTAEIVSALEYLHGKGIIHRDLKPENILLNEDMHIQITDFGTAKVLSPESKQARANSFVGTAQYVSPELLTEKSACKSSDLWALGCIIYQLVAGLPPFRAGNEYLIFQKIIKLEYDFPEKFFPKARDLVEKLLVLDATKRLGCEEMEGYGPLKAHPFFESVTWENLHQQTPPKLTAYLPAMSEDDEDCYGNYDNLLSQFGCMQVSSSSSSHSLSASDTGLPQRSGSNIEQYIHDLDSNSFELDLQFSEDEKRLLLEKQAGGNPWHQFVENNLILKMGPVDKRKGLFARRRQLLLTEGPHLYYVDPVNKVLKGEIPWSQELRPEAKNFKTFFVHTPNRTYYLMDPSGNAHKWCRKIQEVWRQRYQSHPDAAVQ
- measurement.notes: Inhibition of PDK1-mediated AKT phosphorylation at Thr308 residue in human PC3 cells by ELISA
- Format: cell-based, PC-3
metric: IC50 (nM)

INSERT INTO assay_data (smi, unit_spec, result_number) VALUES
  ('CNc1nc(-c2ccc3c(N)n[nH]c3c2)cc(N2C[C@@H](C(=O)NC3CCCCC3)OC[C@H]2C)n1', 'nM', 24),
  ('C[C@@H]1CC[C@H](C(=O)NC2CCCCC2)CN1c1cc(-c2ccc3c(N)n[nH]c3c2)nc(N)n1', 'nM', 472),
  ('C[C@@H]1C[C@@H](N(C)C(=O)OC(C)(C)C)CN(c2cc(-c3ccc4c(N)n[nH]c4c3)nc(N)n2)C1', 'nM', 9),
  ('CNc1nc(-c2ccc3c(N)n[nH]c3c2)cc(N2C[C@@H](C(=O)Nc3ccccc3)CC[C@H]2C)n1', 'nM', 165),
  ('CC[C@@H]1CO[C@H](C(=O)NC2CCCCC2)CN1c1cc(-c2ccc3c(N)n[nH]c3c2)nc(NC)n1', 'nM', 85);

[1] C[C@@H]1C[C@@H](N(C)C(=O)CC(C)(C)C)CN(c2cc(-c3ccc4c(N)n[nH]c4c3)nc(N)n2)C1
[2] CC[C@@H]1CO[C@H](C(=O)Nc2ccccc2)CN1c1cc(-c2ccc3c(N)n[nH]c3c2)nc(NC)n1
## Input Please indicate which entry, 1 or 2 , has the lower recorded IC50 value. Output the label that corresponds to your choice.
## Output 1

* * *

- assay.system: Aurora kinase B (Homo sapiens, UniProt Q96GD4)
- Sequence (Q96GD4 whole entry): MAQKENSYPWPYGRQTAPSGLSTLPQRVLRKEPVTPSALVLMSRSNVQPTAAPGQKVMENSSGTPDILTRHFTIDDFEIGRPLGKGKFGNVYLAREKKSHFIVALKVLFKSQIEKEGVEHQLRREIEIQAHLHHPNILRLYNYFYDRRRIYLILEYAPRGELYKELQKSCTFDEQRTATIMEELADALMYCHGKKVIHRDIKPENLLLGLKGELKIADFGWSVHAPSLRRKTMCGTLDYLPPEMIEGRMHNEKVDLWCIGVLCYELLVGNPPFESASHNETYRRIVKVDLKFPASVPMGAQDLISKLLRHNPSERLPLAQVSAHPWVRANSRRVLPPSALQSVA
- measurement.notes: Inhibition of aurora B
metric: IC50 (nM)

Worked examples follow.
INSERT INTO assay_data (molecule, assay_system, result_number) VALUES
  ('CC(C)(C)OC(=O)N[C@@H]1CCCN(c2cc(-c3ccc4c(N)n[nH]c4c3)nc(N)n2)C1', 'Aurora kinase B (Homo sapiens, UniProt Q96GD4)', 5010),
  ('CC(C)c1cc(-c2ccc3c(N)n[nH]c3c2)nc(N)n1', 'Aurora kinase B (Homo sapiens, UniProt Q96GD4)', 7940),
  ('C[C@@H]1C[C@@H](NC(=O)OC(C)(C)C)CN(c2cc(-c3ccc4c(N)[nH]nc4c3)nc(N)n2)C1', 'Aurora kinase B (Homo sapiens, UniProt Q96GD4)', 1580);

[P] Nc1nc(-c2ccc3c(N)[nH]nc3c2)cc(N2CCO[C@H](C(=O)Nc3ccccc3)C2)n1
[Q] C[C@H]1CC[C@@H](NC(=O)OC(C)(C)C)CN1c1cc(-c2ccc3c(N)[nH]nc3c2)nc(N)n1 (racemic)
## Input Please indicate which entry, P or Q , has the lower recorded IC50 value. Output the label that corresponds to your choice.
## Output Q
(Q: 158 nM, P: 3160 nM)

* * *

- assay.system: Tyrosine-protein kinase SYK (Homo sapiens, UniProt P43405)
- measurement.notes: Inhibition of SYK
pIC50: −log10 of the molar value.
metric: pIC50

## Input Value lookup for pIC50; key = CNc1nc(-c2ccc3c(N)n[nH]c3c2)cc(N2C[C@@H](C(=O)NC3CCCCC3)CC[C@H]2C)n1
## Output < 4.60

* * *

- assay.system: TGF-beta receptor type-1 (Homo sapiens, UniProt P36897)
- measurement.notes: Inhibition of ALK5
- particulars: read-out: IC50
metric: IC50

## Input Find the measured IC50: item CNc1nc(-c2ccc3c(N)n[nH]c3c2)cc(N2C[C@@H](C(=O)NC3CCCCC3)CC[C@H]2C)n1 , target or system TGF-beta receptor type-1 (Homo sapiens, UniProt P36897).
## Output > 10 µM

* * *

- assay.system: 3-phosphoinositide-dependent protein kinase 1 (Homo sapiens, UniProt O15530)
- measurement.notes: Inhibition of PDK1
metric: IC50 (nM)

Worked examples follow.
INSERT INTO assay_data (compound, assay_system, metric, result_number) VALUES
  ('C[C@@H]1CCCCN1c1cc(-c2ccc3c(N)n[nH]c3c2)nc(N)n1', '3-phosphoinositide-dependent protein kinase 1 (Homo sapiens, UniProt O15530)', 'IC50', 126),
  ('CC(C)(C)OC(=O)NC1CCCN(c2cc(-c3ccc4c(N)n[nH]c4c3)nc(N)n2)C1 (racemic)', '3-phosphoinositide-dependent protein kinase 1 (Homo sapiens, UniProt O15530)', 'IC50', 50.1),
  ('CC(C)[C@@H]1COCCN1c1cc(-c2ccc3c(N)n[nH]c3c2)nc(N)n1', '3-phosphoinositide-dependent protein kinase 1 (Homo sapiens, UniProt O15530)', 'IC50', 200),
  ('Nc1nc(-c2ccccc2)cc(-c2ccc3c(N)n[nH]c3c2)n1', '3-phosphoinositide-dependent protein kinase 1 (Homo sapiens, UniProt O15530)', 'IC50', 200),
  ('CN(C)c1nccc(-c2ccc3c(N)n[nH]c3c2)n1', '3-phosphoinositide-dependent protein kinase 1 (Homo sapiens, UniProt O15530)', 'IC50', 20000),
  ('Nc1nccc(-c2ccc3c(N)n[nH]c3c2)n1', '3-phosphoinositide-dependent protein kinase 1 (Homo sapiens, UniProt O15530)', 'IC50', 398),
  ('CCNc1nccc(-c2ccc3c(N)n[nH]c3c2)n1', '3-phosphoinositide-dependent protein kinase 1 (Homo sapiens, UniProt O15530)', 'IC50', 7940),
  ('COc1nccc(-c2ccc3c(N)n[nH]c3c2)n1', '3-phosphoinositide-dependent protein kinase 1 (Homo sapiens, UniProt O15530)', 'IC50', 12600);

[1] CC(C)Nc1cc(-c2ccc3c(N)n[nH]c3c2)nc(N)n1
[2] Nc1nc(-c2ccc3c(N)n[nH]c3c2)cc(N2CCCC(NC(=O)c3ccccc3)C2)n1 (racemic)
[3] Nc1nc(-c2ccc3c(N)n[nH]c3c2)cc(N2CCCC2)n1
[4] Nc1nc(Nc2ccccc2)cc(-c2ccc3c(N)n[nH]c3c2)n1
[5] CN(C)c1cc(-c2ccc3c(N)n[nH]c3c2)nc(N)n1
## Input Arrange by IC50, high to low. In your reply, arrange the labels in the requested order.
## Output 5, 3, 1, 2, 4

* * *

# Rho-associated protein kinase 1 (Homo sapiens, UniProt Q13464): IC50 values follow
# Sequence (Q13464 whole entry): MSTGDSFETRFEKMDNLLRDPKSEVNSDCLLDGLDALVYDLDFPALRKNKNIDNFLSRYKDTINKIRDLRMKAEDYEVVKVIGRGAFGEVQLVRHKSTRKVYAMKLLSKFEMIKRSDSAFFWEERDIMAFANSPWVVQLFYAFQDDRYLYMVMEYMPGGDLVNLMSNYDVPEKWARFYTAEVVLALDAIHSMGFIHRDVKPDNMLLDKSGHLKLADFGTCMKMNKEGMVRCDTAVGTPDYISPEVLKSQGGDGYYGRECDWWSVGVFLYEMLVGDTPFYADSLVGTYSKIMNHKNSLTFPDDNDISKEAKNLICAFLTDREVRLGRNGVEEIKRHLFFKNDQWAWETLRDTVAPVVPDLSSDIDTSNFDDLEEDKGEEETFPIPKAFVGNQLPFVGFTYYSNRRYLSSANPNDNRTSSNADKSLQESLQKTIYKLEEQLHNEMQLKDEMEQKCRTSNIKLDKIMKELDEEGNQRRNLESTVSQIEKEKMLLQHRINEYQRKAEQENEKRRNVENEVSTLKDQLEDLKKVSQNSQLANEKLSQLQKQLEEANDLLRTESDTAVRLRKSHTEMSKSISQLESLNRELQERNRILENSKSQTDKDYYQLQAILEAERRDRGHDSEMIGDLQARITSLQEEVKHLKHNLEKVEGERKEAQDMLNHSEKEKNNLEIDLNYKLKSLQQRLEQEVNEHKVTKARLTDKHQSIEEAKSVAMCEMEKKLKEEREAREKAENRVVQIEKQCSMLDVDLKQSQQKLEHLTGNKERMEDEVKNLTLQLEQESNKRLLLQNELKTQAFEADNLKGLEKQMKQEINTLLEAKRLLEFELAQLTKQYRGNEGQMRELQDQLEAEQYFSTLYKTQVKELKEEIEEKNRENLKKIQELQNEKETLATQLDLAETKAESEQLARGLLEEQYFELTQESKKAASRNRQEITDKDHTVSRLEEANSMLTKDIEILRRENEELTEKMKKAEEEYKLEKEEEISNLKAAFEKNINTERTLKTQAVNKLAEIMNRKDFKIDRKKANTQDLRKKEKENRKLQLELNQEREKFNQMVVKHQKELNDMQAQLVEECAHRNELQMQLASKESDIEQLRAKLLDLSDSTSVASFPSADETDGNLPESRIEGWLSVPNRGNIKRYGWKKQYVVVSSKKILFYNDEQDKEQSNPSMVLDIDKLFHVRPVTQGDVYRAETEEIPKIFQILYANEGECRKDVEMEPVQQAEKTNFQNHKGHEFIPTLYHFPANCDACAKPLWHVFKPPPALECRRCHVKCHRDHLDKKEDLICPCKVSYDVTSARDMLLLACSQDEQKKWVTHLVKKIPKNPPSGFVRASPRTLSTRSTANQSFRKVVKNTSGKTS
metric: IC50 (µM)

INSERT INTO measurements (smi, assay_system, unit_spec, result_number) VALUES
  ('Nc1nc(Nc2ccccc2)cc(-c2ccc3c(N)n[nH]c3c2)n1', 'Rho-associated protein kinase 1 (Homo sapiens, UniProt Q13464)', 'µM', 2.51),
  ('CNc1nc(-c2ccc3c(N)n[nH]c3c2)cc(N2C[C@@H](C(=O)Nc3ccccc3)CC[C@H]2C)n1', 'Rho-associated protein kinase 1 (Homo sapiens, UniProt Q13464)', 'µM', 3.16);

* * *

- assay.system: UniProtKB P36897
- Sequence (P36897 whole entry): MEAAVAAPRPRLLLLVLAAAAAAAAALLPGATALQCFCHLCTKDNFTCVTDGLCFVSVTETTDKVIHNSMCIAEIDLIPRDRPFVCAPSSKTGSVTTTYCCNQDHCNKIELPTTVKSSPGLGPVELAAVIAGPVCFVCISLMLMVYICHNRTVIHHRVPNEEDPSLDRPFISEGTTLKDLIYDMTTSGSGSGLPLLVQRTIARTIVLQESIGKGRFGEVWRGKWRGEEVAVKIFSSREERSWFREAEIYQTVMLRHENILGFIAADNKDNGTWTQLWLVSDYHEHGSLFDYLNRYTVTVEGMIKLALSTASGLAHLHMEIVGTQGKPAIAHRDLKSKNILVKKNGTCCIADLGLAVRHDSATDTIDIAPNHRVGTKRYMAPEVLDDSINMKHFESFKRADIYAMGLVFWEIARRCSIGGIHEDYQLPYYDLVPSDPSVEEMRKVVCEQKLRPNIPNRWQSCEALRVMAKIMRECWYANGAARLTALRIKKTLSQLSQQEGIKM
- measurement.notes: Inhibition of ALK5
- particulars: read-out: pIC50 (converted)
metric: IC50 (µM)

[A] Nc1nc(Nc2ccccc2)cc(-c2ccc3c(N)n[nH]c3c2)n1
[B] CC(C)c1cc(-c2ccc3c(N)n[nH]c3c2)nc(N)n1
## Input Higher IC50 between A and B ? Output the label that corresponds to your choice.
## Output B
(B: 2 µM, A: 0.0251 µM)
